Target: autotaxin (ATX, NPP-2, lysophospholipase D) (Homo sapiens, UniProt Q13822)
Assay: LPLD activity (choline release from LPC) and PDE activity (pNp-TMP) with purified recombinant ATX
Property label: pIC50
To interpret pIC50, take it as minus log10 of a concentration measured in moles per litre.

Value of measured pIC50 for the entry `N[C@@H](Cc1c[nH]cn1)C(=O)O` : 2.40
